# target-entity: human muscarinic M1 receptor (Homo sapiens, UniProt P11229)
# assay-method-text: Alphascreen Surefire phospho-ERK1/2 functional assay, M1
# Type: cell-based
# applied-conditions: CHO, read-out: % Emax cf. ACh, M1, CHO cells stably expressing human M1; relative to ACh
For each record, write down the corresponding Emax.
One number for each entry, in %.

Here are 4 molecules together with their reported answers.
>>> print(df.to_string())
                                   molecule                             target_entity  measurement
0  CCOC(=O)N1CCC2(CC(N3CCC(N4CC(F)(F)C[C@@H]4C(=O)N(C)C)CC3)C2)C1 (single isomer, unassigned) [2-89 Isomer 2]  human muscarinic M1 receptor (Homo sapiens, UniProt P11229)           37
1  CCOC(=O)N1CCC2(CC(N3CCC(N4CCCC45CCOC5=O)CC3)C2)C1 (single isomer, unassigned) [2-96 Isomer 2]  human muscarinic M1 receptor (Homo sapiens, UniProt P11229)            2
2  CCOC(=O)N1CCC2(CC(N3CCC(N4CCSCC4)CC3)C2)C1 (single isomer, unassigned) [4-12 Isomer 2]  human muscarinic M1 receptor (Homo sapiens, UniProt P11229)           19
3  CCOC(=O)N1CCC2(CC(N3CCC([C@@H]4CCCN4C(=O)CCc4ccccn4)CC3)C2)C1 (single isomer, unassigned) [2-62 Isomer 2]  human muscarinic M1 receptor (Homo sapiens, UniProt P11229)           20

Hey, can you go through the list below and give me Emax for every item?
1. CCOC(=O)N1CCC2(CC(N3CCC(c4nccc(N)n4)CC3)C2)C1 (single isomer, unassigned) [3-9 Isomer 2]
2. CCOC(=O)N1CCC2(CC(N3CCC(N4CCC[C@H]4C(=O)NC)CC3)C2)C1 (single isomer, unassigned) [2-85 Isomer 2]

OUTPUT:
[103, 66]

###

Field: EC50. Provide a value for each of the molecules that follow.
# target-entity: human muscarinic M1 receptor (Homo sapiens, UniProt P11229)
# Sequence (P11229 1-460): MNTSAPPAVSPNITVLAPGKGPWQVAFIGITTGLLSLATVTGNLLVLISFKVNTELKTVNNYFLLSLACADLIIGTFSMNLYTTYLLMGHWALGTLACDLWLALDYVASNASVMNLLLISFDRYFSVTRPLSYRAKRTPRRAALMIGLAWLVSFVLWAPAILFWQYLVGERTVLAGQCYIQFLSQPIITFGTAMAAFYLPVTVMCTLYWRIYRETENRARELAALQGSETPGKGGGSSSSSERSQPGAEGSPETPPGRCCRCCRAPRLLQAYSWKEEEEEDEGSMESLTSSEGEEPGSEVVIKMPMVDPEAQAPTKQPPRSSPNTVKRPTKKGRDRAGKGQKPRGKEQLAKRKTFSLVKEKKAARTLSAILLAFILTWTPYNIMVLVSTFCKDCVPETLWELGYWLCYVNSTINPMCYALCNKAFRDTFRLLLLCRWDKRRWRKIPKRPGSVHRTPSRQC
# assay-method-text: Alphascreen Surefire phospho-ERK1/2 functional assay, M1
# Assay type: cell-based
# applied-conditions: CHO cells stably expressing human M1; phospho-ERK1/2; * = variable results; read-out: pEC50 M1 (converted)
Answers are plain numbers, in nM.

In [3]: df
Out[3]:
                                   molecule  outcome_measure  value_unit  measurement
0  CCOC(=O)N1CCC2(CC(N3CCC([C@@H]4CCCN4CC(=O)OC)CC3)C2)C1 (single isomer, unassigned) [2-72 Isomer 2]             EC50          nM          794
1  CCOC(=O)N1CCC2(CC(N3CCC(C4CCCN4C=O)CC3)C2)C1 (single isomer, unassigned) [2-2 Isomer 2]             EC50          nM          794
2  CCOC(=O)N1CCC2(CC(N3CCC(N4CC(F)(F)C[C@@H]4C(C)O)CC3)C2)C1 (single isomer, unassigned) [2-109 Isomer 4]             EC50          nM          316
3  CCOC(=O)N1CCC2(CC(N3CCC(c4nnnn4C)CC3)C2)C1 (single isomer, unassigned) [1-64 Isomer 2]             EC50          nM         5010
4  CCOC(=O)N1CCC2(CC(N3CCC(c4cscn4)CC3)C2)C1 (single isomer, unassigned) [1-50 Isomer 2]             EC50          nM         7.94
5  CCOC(=O)N1CCC2(CC(N3CCC(C)(c4nc(C)no4)CC3)C2)C1 (single isomer, unassigned) [1-41 Isomer 2]             EC50          nM         1000
6  CCCn1nccc1C1CCN(C2CC3(CCN(C(=O)OCC)C3)C2)CC1 (single isomer, unassigned) [1-49 Isomer 2]             EC50          nM         6310
7  CCOC(=O)N1CCC2(CC(N3CCC([C@@H]4CCCN4C(=O)NC4COC4)CC3)C2)C1 (single isomer, unassigned) [2-56 Isomer 2]             EC50          nM          631
8  CCOC(=O)N1CCC2(CC(N3CCC([C@@H]4CCCN4CCC(F)(F)F)CC3)C2)C1 (single isomer, unassigned) [2-70 Isomer 2]             EC50          nM         1580
9  CCOC(=O)N1CCC2(CC(N3CCC(N4C(=O)OC[C@H]4C(C)C)CC3)C2)C1 (single isomer, unassigned) [2-120 Isomer 2]             EC50          nM          398

Give me EC50 for each of these molecules, listed below.
1. CCOC(=O)N1CCC2(CC(N3CCC(N4CC(F)(F)C[C@@H]4CO)CC3)C2)C1 (single isomer, unassigned) [2-107 Isomer 2]
2. CCOC(=O)N1CCC2(CC(N3CCC([C@@H]4CCCN4C(=O)NC4CC(F)(F)C4)CC3)C2)C1 (single isomer, unassigned) [2-38 Isomer 2]
3. CCOC(=O)N1CCC2(CC(N3CCC([C@@H]4CCCN4CC(F)(F)F)CC3)C2)C1 (single isomer, unassigned) [2-69 Isomer 2]
4. CCOC(=O)N1CCC2(CC(N3CCC(c4nccs4)CC3)C2)C1 (single isomer, unassigned) [1-25 Isomer 2]
5. CCOC(=O)N1CCC2(CC(N3CCC(N4CC(F)(F)C[C@@H]4C)CC3)C2)C1 (single isomer, unassigned) [2-106 Isomer 2]
6. CCOC(=O)N1CCC2(CC(N3CCC(N4C[C@@H](F)C[C@@H]4CO)CC3)C2)C1 (single isomer, unassigned) [2-137 Isomer 2]
7. O=C(OCCF)N1CCC2(CC(N3CCC(c4ccc[nH]c4=O)CC3)C2)C1 (single isomer, unassigned) [3-3 Isomer 2]

OUTPUT:
1: 63.1; 2: 158; 3: 398; 4: 50.1; 5: 126; 6: 1000; 7: 25.1
